Provenance of the data: PubChem BioAssay (NCI)

Test: NCI Yeast Anticancer Drug Screen. Data for the mlh1 rad18 strain (AID 175)
Settings: S. cerevisiae mlh1 rad18 strain growth inhibition; at 50.0 µM; active compounds read high
About 79,000 compounds went through this panel and 15% of them were active in at least one assay; those are over-represented in the sample as a whole.
# growth inhibition listing for each entry below
Express your answer in %, writing the number without its unit.

{"COMPOUND": "O=S(=O)(O)c1cc(N=Nc2cc(S(=O)(=O)O)c3cccnc3c2O)ccc1/C=C/c1ccc(N=Nc2cc(S(=O)(=O)O)c3cccnc3c2O)cc1S(=O)(=O)O.[Na+].[Zn+2]", "MEASURE": "growth inhibition", "RESULT_VALUE": -86.7}
{"COMPOUND": "CC1(C(=O)Sc2ccccc2)OC1(C)c1ccccc1 (stereo unspecified)", "MEASURE": "growth inhibition", "RESULT_VALUE": 18.1}
{"COMPOUND": "CN1CC2=C(NC(=S)NC2c2ccccc2Cl)/C(=C/c2ccccc2Cl)C1 (stereo unspecified)", "MEASURE": "growth inhibition", "RESULT_VALUE": -5.15}
{"COMPOUND": "[N-]=[N+]=NC12CC3C4CC5CC3C(C1)C(C5)C4C2", "MEASURE": "growth inhibition", "RESULT_VALUE": -8.45}

Q: Item under review: NNC(=O)/C(NC(=O)c1ccccc1)=C(\N)c1cccc([N+](=O)[O-])c1 . Reported growth inhibition?
Ans: 0.9

Q: Please do the same for C=Cc1ccc(S(N)(=O)=O)cc1 as well.
Ans: -2.25

Q: Please do the same for O=C(N=C1SCCN1C(=O)C(C(F)(F)F)C(F)(F)F)C(C(F)(F)F)C(F)(F)F as well.
Ans: -36.9

Q: Please do the same for O=S(=O)(O)NNc1ccc(N=Nc2ccccc2)cc1 as well.
Ans: 4.75

Q: Please do the same for CNC(=O)NCCCC(NC(C)=O)C(=O)NCc1ccccc1 (stereo unspecified) as well.
Ans: 4.7

Q: Please do the same for OCC(O)C(O)C(O)c1nn(-c2ccccc2)c2nc3ccc(Cl)cc3nc12 (stereo unspecified) as well.
Ans: 5.3

Q: Please do the same for O=C(O)/C=C\c1ccc(OC(=O)c2ccccc2)cc1 as well.
Ans: 33.1

Q: Please do the same for Nc1nc(N)c2c(n1)NCN(OCCOc1ccc(Cl)cc1Cl)C2 as well.
Ans: 9.8

Q: Please do the same for CC(=O)Nc1cccc(F)c1 as well.
Ans: -38.1

Q: Please do the same for COC1(OC)C2(Cl)C3=CCCC=C3C1(Cl)C(Cl)=C2Cl as well.
Ans: -6.65

Q: Please do the same for CC(=O)NNc1nc(C)c(C(=O)NNC(=O)C(=O)Nc2c(C)cccc2C(C)(C)C)s1 as well.
Ans: 20.9

Q: Please do the same for Cc1ccccc1NC(=O)Cc1csc2[n+]1C(=O)/C(=C\c1ccc3c(c1)OCO3)S2 as well.
Ans: 7

----------
# growth inhibition listing for each entry below
Test: NCI Yeast Anticancer Drug Screen. Data for the mlh1 rad18 strain (AID 175)
Settings: S. cerevisiae mlh1 rad18 strain growth inhibition; at 50.0 µM; active compounds read high
This is part of a sample that, as a whole, favours compounds with a hit. Of some 79,000 tested, about 15% had one in any assay.
Express your answer in %, writing the number without its unit.

Q: Item under review: CCOC(=O)NN(C(=O)OCC)C(=C(C1=CCCCC1)N1CCOCC1)N(NC(=O)OCC)C(=O)OCC . Reported growth inhibition?
Ans: -6.5

Q: Please do the same for CC(C)NC(=O)/C=C/C(=O)O as well.
Ans: -9.1

Q: Please do the same for COc1cccc(C(=O)O)c1Cc1cccc2ccccc12 as well.
Ans: 25.1

Q: Please do the same for O=C1NC(Cc2c[nH]c3ccccc23)C(=O)N2CCCC12 (centres undefined) as well.
Ans: 8.85

Q: Please do the same for O=[N+]([O-])/C(C(Cl)=C(Cl)Cl)=C(/Cl)Sc1ccccc1 as well.
Ans: 91.4

Q: Please do the same for CC(=O)Nc1ccc(C2C(C(=O)Nc3ccccc3)=C(C)NC(C)=C2C(=O)Nc2ccccc2)cc1 as well.
Ans: -2.2

Q: Please do the same for O=Cc1ccccc1Cl as well.
Ans: 13.8

Q: Please do the same for CCCCc1c(O)c(N=NC(N)=S)c2ccccc2c1O as well.
Ans: 43.5

Q: Please do the same for CC1=CCCC(C)(C)C1/C=C\C(C)=N\Nc1ccc([N+](=O)[O-])cc1[N+](=O)[O-] (centres undefined) as well.
Ans: 6.3

Q: Please do the same for CC(=O)OCC1OC(n2cnc3c(N)ncnc32)C(Nc2ccc([N+](=O)[O-])cc2[N+](=O)[O-])C(OC(C)=O)C1OC(C)=O (centres undefined) as well.
Ans: 21.8

Q: Please do the same for CN(C)CCCNc1ccc([N+](=O)[O-])c2nc3ccccc3c(N)c12 as well.
Ans: 65.6

Q: Please do the same for N#CN1CCC2CC(=O)CCC2C1 (centres undefined) as well.
Ans: -10.6

Q: Please do the same for S=C(NCc1ccc(Cl)c(Cl)c1)Nc1ccccc1 as well.
Ans: 98

Q: Please do the same for O=NNc1ccc(Sc2ccccc2)cn1 as well.
Ans: 10.6
